- Test system: upland rice (Oryza sp., var. Tebonnet, RICE)
- Experiment: Pre-emerge test, crop safety
- Assay type: in vivo
- Details: 250 g ai/ha; rated 14 days after application; 0 = no damage, 100 = complete death
Listed below: Pre-emerge phytotoxicity rating (0-100), crop damage, RICE values for each entry.
Note: the reply should be a number with no unit written.

Field: example entries. Status: answers known.
COc1c(Cl)cc(F)c(-n2c(=O)cc(C(F)(F)F)n(C)c2=O)c1NC(=O)COc1ccccc1 | 100
COc1c(Cl)cc(F)c(-n2c(=O)cc(C(F)(F)F)n(C)c2=O)c1NC(=O)c1ccc(C)c(C)c1 | 99
COc1c(Cl)cc(F)c(-n2c(=O)cc(C(F)(F)F)n(C)c2=O)c1N(C(=O)C=Cc1ccccc1Cl)C(=O)C=Cc1ccccc1Cl | 0

stdin: Note Pre-emerge phytotoxicity rating (0-100), crop damage, RICE for the compound shown: `COc1c(Cl)cc(F)c(-n2c(=O)cc(C(F)(F)F)n(C)c2=O)c1NC(=O)c1ccc(F)cc1F`
stdout: 99

stdin: Assign Pre-emerge phytotoxicity rating (0-100), crop damage, RICE to the following record: `COc1c(Cl)cc(F)c(-n2c(=O)cc(C(F)(F)F)n(C)c2=O)c1NC(=O)c1ccc(OC(F)(F)F)cc1`
stdout: 40

stdin: Annotate the compound `COc1c(Cl)cc(F)c(-n2c(=O)cc(C(F)(F)F)n(C)c2=O)c1N(C(=O)c1ccc(Cl)nc1)C(=O)c1ccc(Cl)nc1` with its measured Pre-emerge phytotoxicity rating (0-100), crop damage, RICE.
stdout: 90

stdin: Identify Pre-emerge phytotoxicity rating (0-100), crop damage, RICE associated with the compound `COc1c(Cl)cc(F)c(-n2c(=O)cc(C(F)(F)F)n(C)c2=O)c1NC(=O)c1cccnc1`
stdout: 90

stdin: Output Pre-emerge phytotoxicity rating (0-100), crop damage, RICE of `COc1c(Cl)cc(F)c(-n2c(=O)cc(C(F)(F)F)n(C)c2=O)c1NC(=O)c1ccc2c(c1)OCO2`
stdout: 100

stdin: Fill in reported Pre-emerge phytotoxicity rating (0-100), crop damage, RICE for this entry: `COc1ccc(C(=O)Nc2c(OC)c(Cl)cc(F)c2-n2c(=O)cc(C(F)(F)F)n(C)c2=O)cc1`
stdout: 100

stdin: Provide measured Pre-emerge phytotoxicity rating (0-100), crop damage, RICE value, entry: `COc1c(Cl)cc(F)c(-n2c(=O)cc(C(F)(F)F)n(C)c2=O)c1N(C(=O)c1ccc([N+](=O)[O-])cc1)C(=O)c1ccc([N+](=O)[O-])cc1`
stdout: 30

stdin: Supply reported Pre-emerge phytotoxicity rating (0-100), crop damage, RICE belonging to this compound: `COc1c(Cl)cc(F)c(-n2c(=O)cc(C(F)(F)F)n(C)c2=O)c1NC(=O)CCc1ccccc1`
stdout: 99

stdin: For `COc1c(Cl)cc(F)c(-n2c(=S)cc(C(F)(F)F)n(C)c2=O)c1NC(=S)c1ccc(F)cc1F` , write its Pre-emerge phytotoxicity rating (0-100), crop damage, RICE.
stdout: 70

stdin: Find the measured Pre-emerge phytotoxicity rating (0-100), crop damage, RICE of `COc1c(Cl)cc(F)c(-n2c(=O)cc(C(F)(F)F)n(C)c2=O)c1NC(=O)c1ccccc1Cl` and report it.
stdout: 90

stdin: State its Pre-emerge phytotoxicity rating (0-100), crop damage, RICE: `COc1c(Cl)cc(F)c(-n2c(=O)cc(C(F)(F)F)n(C)c2=O)c1NC(=O)C(=O)c1ccccc1`
stdout: 0

stdin: Consider the compound `COc1c(Cl)cc(F)c(-n2c(=O)cc(C(F)(F)F)n(C)c2=O)c1NC(=O)C=Cc1ccc(Cl)cc1` and give its recorded Pre-emerge phytotoxicity rating (0-100), crop damage, RICE.
stdout: 0

stdin: Give recorded Pre-emerge phytotoxicity rating (0-100), crop damage, RICE. `COc1c(Cl)cc(F)c(-n2c(=O)cc(C(F)(F)F)n(C)c2=O)c1NC(=O)c1ccc(Cl)cc1Cl`
stdout: 95

stdin: Respond only with Pre-emerge phytotoxicity rating (0-100), crop damage, RICE recorded for `COc1c(Cl)cc(F)c(-n2c(=O)cc(C(F)(F)F)n(C)c2=O)c1NC(=O)c1ccc(F)c(F)c1`
stdout: 99

stdin: Specify Pre-emerge phytotoxicity rating (0-100), crop damage, RICE for `COc1c(Cl)cc(F)c(-n2c(=O)cc(C(F)(F)F)n(C)c2=O)c1NC(=O)c1ccc(Cl)c(Cl)c1` and stop.
stdout: 75

stdin: Answer with the recorded Pre-emerge phytotoxicity rating (0-100), crop damage, RICE for the compound listed here: `Cn1c(C(F)(F)F)cc(=O)n(-c2c(F)cc(Cl)c(OCC#N)c2N(C(=O)c2ccc(F)cc2F)C(=O)c2ccc(F)cc2F)c1=O`
stdout: 0

stdin: Identify the reported Pre-emerge phytotoxicity rating (0-100), crop damage, RICE for the following entry. `COc1c(Cl)cc(F)c(-n2c(=O)cc(C(F)(F)F)n(C)c2=O)c1NC(=O)c1ccc(C(F)(F)F)cc1`
stdout: 80

stdin: // fetch Pre-emerge phytotoxicity rating (0-100), crop damage, RICE given entry `COc1c(Cl)cc(F)c(-n2c(=O)cc(C(F)(F)F)n(C)c2=O)c1NC(=O)c1ccc(F)cc1`
stdout: 100

stdin: For the compound `COc1c(Cl)cc(F)c(-n2c(=O)cc(C(F)(F)F)n(C)c2=O)c1NC(=O)c1ccccc1F` , give its measured Pre-emerge phytotoxicity rating (0-100), crop damage, RICE value.
stdout: 99

stdin: Identify measured Pre-emerge phytotoxicity rating (0-100), crop damage, RICE associated with `COc1c(Cl)cc(F)c(-n2c(=O)cc(C(F)(F)F)n(N)c2=O)c1NC(=O)c1ccc(F)cc1F`
stdout: 80

stdin: Note Pre-emerge phytotoxicity rating (0-100), crop damage, RICE for the compound shown: `COc1c(Cl)cc(F)c(-n2c(=O)cc(C(F)(F)F)n(C)c2=O)c1N(C(=O)COc1ccccc1)C(=O)COc1ccccc1`
stdout: 95

stdin: Please report the measured Pre-emerge phytotoxicity rating (0-100), crop damage, RICE for `COc1c(Cl)cc(F)c(-n2c(=O)cc(C(F)(F)F)n(C)c2=O)c1NC(=O)COCc1ccccc1`
stdout: 90

stdin: Tell me Pre-emerge phytotoxicity rating (0-100), crop damage, RICE reported for `COc1c(Cl)cc(F)c(-n2c(=O)cc(C(F)(F)F)n(C)c2=O)c1NC(=O)c1cc([N+](=O)[O-])cc([N+](=O)[O-])c1`
stdout: 10

stdin: Give Pre-emerge phytotoxicity rating (0-100), crop damage, RICE for the following compound: `COc1c(Cl)cc(F)c(-n2c(=O)cc(C(F)(F)F)n(C)c2=O)c1NC(=O)c1ccc(I)cc1`
stdout: 60

###

- System: field corn (Zea mays L., var. Dekalb 535, CORN)
- Experiment: Post-emerge test, crop safety
- Type: in vivo
- Details: Rate 63 g ai/ha; rating scale 0-100 (0 no damage, 100 complete death); 14 days after application
Measurement Name: Post-emerge phytotoxicity rating CORN (crop damage)
Format: numeric value only, no unit, no commentary.

CCCCOC(=O)C(C)(Cl)Cc1c(OC)c(Cl)cc(F)c1-n1c(=O)cc(C(F)(F)F)n(C)c1=O (centres unmarked) | 95
C#CCOC(=O)C(C)(Cl)Cc1c(OC)c(Cl)cc(F)c1-n1c(=O)cc(C(F)(F)F)n(C)c1=O (centres unmarked) | 100
COc1c(Cl)cc(F)c(-n2c(=O)cc(C(F)(F)F)n(C)c2=O)c1CC(C)(Cl)C(=O)OCC(F)(F)C(F)F (centres unmarked) | 70
CCOC(=O)C(Cl)(CC(=O)OC)Cc1c(OC)c(Cl)cc(F)c1-n1c(=O)cc(C(F)(F)F)n(C)c1=O (centres unmarked) | 10
COC(=O)C(Cl)Cc1c(OC)c(Cl)cc(F)c1-n1c(=O)cc(C(F)(F)F)n(C)c1=O (centres unmarked) | 100

stdin: In one line, give reported Post-emerge phytotoxicity rating CORN (crop damage) of the entry C=COC(=O)C(C)(Cl)Cc1c(OC)c(Cl)cc(F)c1-n1c(=O)cc(C(F)(F)F)n(C)c1=O (centres unmarked) .
stdout: 100

stdin: Identify measured Post-emerge phytotoxicity rating CORN (crop damage) corresponding to C=CCOC(=O)C(C)(Cl)Cc1c(OC)c(Cl)cc(F)c1-n1c(=O)cc(C(F)(F)F)n(C)c1=O (centres unmarked)
stdout: 95

###

- Tested on: redroot pigweed (Amaranthus retroflexus, AMARE)
- Experiment: Pre-emerge test, greenhouse herbicide activity screening
- Type: in vivo
- Details: 63 g ai/ha; rating scale 0-100, 14 days after application
Label Fulfilled when Pre-emerge herbicidal activity, phytotoxicity rating AMARE is at or above 90; otherwise label Not fulfilled.

Check out these entries, answers already filled in.
COc1c(Cl)cc(F)c(-n2c(=O)cc(C(F)(F)F)n(C)c2=O)c1CC(C)(Cl)C(=O)OCC(C)C (centres unmarked) | Fulfilled
COc1c(Cl)cc(F)c(-n2c(=O)cc(C(F)(F)F)n(C)c2=O)c1CC(Cl)C(=O)OCC(F)(F)C(F)F (centres unmarked) | Fulfilled
C#CCOC(=O)C(C)(Cl)Cc1c(OC)c(Cl)cc(F)c1-n1c(=O)cc(C(F)(F)F)n(C)c1=O (centres unmarked) | Not fulfilled
COc1c(Cl)cc(F)c(N2C(=O)c3ccccc3C2=O)c1NC(=O)c1ccc2ccccc2c1 | Fulfilled
CCOC(=O)C(Br)Cc1c(OC)c(Cl)cc(F)c1-n1c(=O)cc(C(F)(F)F)n(C)c1=O (single isomer, unassigned) | Fulfilled

stdin: Is reported Pre-emerge herbicidal activity, phytotoxicity rating AMARE greater than or equal to 90 here: COc1c(Cl)cc(F)c(-n2c(=O)cc(C(F)(F)F)n(C)c2=O)c1CC(C)(Cl)C(=O)OCc1ccccc1 (centres unmarked)
stdout: Fulfilled

stdin: Textbook exercise: given the entry CCCCCCOC(=O)C(C)(Cl)Cc1c(OC)c(Cl)cc(F)c1-n1c(=O)cc(C(F)(F)F)n(C)c1=O (centres unmarked) , state whether its Pre-emerge herbicidal activity, phytotoxicity rating AMARE is greater than or equal to 90.
stdout: Fulfilled

stdin: API: above_or_equal(metric=Pre-emerge herbicidal activity, phytotoxicity rating AMARE, cutoff=90) for item C#CCOC(=O)C(Cl)Cc1c(OC)c(Cl)cc(F)c1-n1c(=O)cc(C(F)(F)F)n(C)c1=O (single isomer, unassigned)
stdout: Not fulfilled

stdin: Has C=CCOC(=O)C(C)(Cl)Cc1c(OC)c(Cl)cc(F)c1-n1c(=O)cc(C(F)(F)F)n(C)c1=O (centres unmarked) a recorded Pre-emerge herbicidal activity, phytotoxicity rating AMARE greater than or equal to 90?
stdout: Fulfilled
